# experimental system: T1, recombinant fibronectin domain ED-B (His)6 (human, UniProt P02751 1266-1356)
# T1 construct: domain: ED-B; Produced by standard procedures; immobilised on ELISA plates or on the BIAcore chip; also called recombinant ED-B; human ED-B
# method notes: SPR (BIAcore), ED-B immobilised on chip, Fab in flow
Exam item: assign criterion met to entries whose Kd is below 80 nM and criterion not met to entries at or above 80 nM. Note that a value of exactly 80 nM receives criterion not met.

Item MOR02715 (Fab, V domains shown, HuCAL GOLD Fab, VH3/L2) VH: QVQLVESGGGLVQPGGSLRLSCAASGFTFSSYGMHWVRQAPGKGLEWVSVISSSGSYIYYADSVKGRFTISRDNSKNTLYLQMNSLRAEDTAVYYCARNKVGFDVWGQGTLVTVSS VL: DIALTQPASVSGSPGQSITISCTGTSSDGGGYNTVSWYQQHPGKAPKLMIYYVHKRPSGVSNRFSGSKSGNTASLTISGLQAEDEADYYCQAWDNQGMKYVFGGGTKLTVLG : Kd beneath 80 nM, strictly?
criterion met

Item MOR02613 (Fab, V domains shown, HuCAL GOLD Fab, VH3/L2) VH: QVQLVESGGGLVQPGGSLRLSCAASGFTFSNYTMTWVRQAPGKGLEWVSFIIGSGSNTSYADSVKGRFTISRDNSKNTLYLQMNSLRAEDTAVYYCARYVNGFDIWGQGTLVTVSS VL: DIALTQPASVSGSPGQSITISCTGTSSDVGVYYYVSWYQQHPGKAPKLMIYYDSKRPSGVSNRFSGSKSGNTASLTISGLQAEDEADYYCQTYAKKDYSLVFGGGTKLTVLG : Kd beneath 80 nM, strictly?
criterion not met

Item MOR02722 (Fab, V domains shown, HuCAL GOLD Fab, VH3/K2) VH: QVQLVESGGGLVQPGGSLRLSCAASGFTFSSNAIHWVRQAPGKGLEWVSSISGSGSNTYYADSVKGRFTISRDNSKNTLYLQMNSLRAEDTAVYYCARFIASWGQGTLVTVSS VL: DIVMTQSPLSLPVTPGEPASISCRSSQSLVHSNGYTDLNWYLQKPGQSPQLLIYLGSYRASGVPDRFSGSGSGTDFTLKISRVEAEDVGVYYCQQYSNFPFTFGQGTKVEIKR : Kd beneath 80 nM, strictly?
criterion not met

Item MOR02610 (Fab, V domains shown, HuCAL GOLD Fab, VH1B/L1) VH: QVQLVQSGAEVKKPGASVKVSCKASGYTFTGFYINWVRQAPGQGLEWMGWINPYSGNTRYAQKFQGRVTMTRDTSISTAYMELSSLRSEDTAVYYCARSPVYYKYDYWGQGTLVTVSS VL: DIVLTQPPSVSGAPGQRVTISCSGSSGNIGINFVNWYQQLPGTAPKLLIYKNNKRPSGVPDRFSGSKSGTSASLAITGLQSEDEADYYCQSYDKTSSTYVFGGGTKLTVLG : Kd beneath 80 nM, strictly?
criterion met

Item MOR02616 (Fab, V domains shown, HuCAL GOLD Fab, VH3/K3) VH: QVQLVESGGGLVQPGGSLRLSCAASGFTFRNNAMHWVRQAPGKGLEWVSAISSSGSGTYYADSVKGRFTISRDNSKNTLYLQMNSLRAEDTAVYYCARVIVLFDYWGQGTLVTVSS VL: DIVLTQSPATLSLSPGERATLSCRASQNVRSNLAWYQQKPGQAPRLLIYGASNRATGVPARFSGSGSGTDFTLTISSLEPEDFAVYYCLQKYSIPFTFGQGTKVEIKR : Kd beneath 80 nM, strictly?
criterion met
